test-protocol: Solubility of the compound in 0.01 M hydrochloric acid at pH 2
Assay type: physicochemical
test-settings: 0.01 M hydrochloric acid, read-out: solubility
Record form. Attribute: solubility. Fill in for each entry.
Write the number in µg/mL without appending the unit.

Lookup: In one line, give reported solubility of the entry COc1cc(/C=C/C(C)=O)ccc1OCc1cn(-c2ccnc3cc(Cl)ccc23)nn1 .
Found: 3.1

Lookup: In one line, give reported solubility of the entry COc1cc(/C=C/C(C)=O)ccc1OCCNc1ccnc2cc(Cl)ccc12 .
Found: 50

----------
test-protocol: Solubility of the compound in phosphate buffer at pH 6.5
Assay type: physicochemical
test-settings: phosphate buffer, read-out: solubility
parameter-measured: solubility (µg/mL)
Write the number in µg/mL without appending the unit.

Lookup: In one line, give reported solubility of the entry COc1ccc(C(=O)/C=C/c2ccc(OCCNc3ccnc4cc(Cl)ccc34)c(OC)c2)c(OC)c1 .
Found: 3.1

Lookup: In one line, give reported solubility of the entry COc1cc(/C=C/C(C)=O)ccc1OCCNc1ccnc2cc(Cl)ccc12 .
Found: 6.3

Lookup: In one line, give reported solubility of the entry COc1cc(/C=C/C(C)=O)ccc1OCCN1CCN(c2ccnc3cc(Cl)ccc23)CC1 .
Found: 1.6

Lookup: In one line, give reported solubility of the entry COc1cc(/C=C/C(C)=O)ccc1OCc1cn(-c2ccnc3cc(Cl)ccc23)nn1 .
Found: 3.1

Lookup: In one line, give reported solubility of the entry COc1cc(/C=C/C(C)=O)cc(CN2CCN(c3ccnc4cc(Cl)ccc34)CC2)c1O .
Found: 1.6

----------
test-protocol: Solubility of the compound in 0.01 M hydrochloric acid at pH 2
Type: physicochemical
test-settings: buffer
parameter-measured: solubility

Lookup: In one line, give reported solubility of the entry COc1ccc(C(=O)/C=C/c2ccc(OCCNc3ccnc4cc(Cl)ccc34)c(OC)c2)c(OC)c1 .
Found: > 100 µg/mL

Lookup: In one line, give reported solubility of the entry COc1ccc(C(=O)/C=C/c2ccc(OCc3cn(-c4ccnc5cc(Cl)ccc45)nn3)c(OC)c2)c(OC)c1 .
Found: < 1.6 µg/mL

Lookup: In one line, give reported solubility of the entry COc1ccc(C(=O)/C=C/c2ccc(OCCN3CCN(c4ccnc5cc(Cl)ccc45)CC3)c(OC)c2)c(OC)c1 .
Found: > 100 µg/mL

Lookup: In one line, give reported solubility of the entry CC(=O)/C=C/c1ccc(O)c(CN2CCN(c3ccnc4cc(Cl)ccc34)CC2)c1 .
Found: > 100 µg/mL

Lookup: In one line, give reported solubility of the entry COc1cc(/C=C/C(C)=O)cc(CN2CCN(c3ccnc4cc(Cl)ccc34)CC2)c1O .
Found: > 100 µg/mL

Lookup: In one line, give reported solubility of the entry COc1cc(/C=C/C(C)=O)ccc1OCCN1CCN(c2ccnc3cc(Cl)ccc23)CC1 .
Found: > 100 µg/mL

Lookup: In one line, give reported solubility of the entry COc1ccc(C(=O)/C=C/c2cc(CN3CCN(c4ccnc5cc(Cl)ccc45)CC3)c(O)c(OC)c2)c(OC)c1 .
Found: > 100 µg/mL

Lookup: In one line, give reported solubility of the entry COc1ccc(C(=O)/C=C/c2ccc(O)c(CN3CCN(c4ccnc5cc(Cl)ccc45)CC3)c2)c(OC)c1 .
Found: > 100 µg/mL

----------
Test system: Liver microsomes
test-protocol: Half life in human liver microsomes assessed as compound degradation at 1 uM by LC-MS analysis in presence of NADPH and UDPGA
Format: ADME, Microsome
test-settings: microsomes, 1 µM
Field: label. Allowed values: Fulfilled (t1/2 < 40 min) or Not fulfilled (t1/2 >= 40 min).

Lookup: Item CC(=O)/C=C/c1ccc(O)c(CN2CCN(c3ccnc4cc(Cl)ccc34)CC2)c1 : t1/2 beneath 40 min, strictly?
Found: Fulfilled

Lookup: Item COc1ccc(C(=O)/C=C/c2ccc(OCc3cn(-c4ccnc5cc(Cl)ccc45)nn3)c(OC)c2)c(OC)c1 : t1/2 beneath 40 min, strictly?
Found: Not fulfilled

Lookup: Item COc1ccc(C(=O)/C=C/c2ccc(OCCNc3ccnc4cc(Cl)ccc34)c(OC)c2)c(OC)c1 : t1/2 beneath 40 min, strictly?
Found: Fulfilled

Lookup: Item COc1cc(/C=C/C(C)=O)ccc1OCCNc1ccnc2cc(Cl)ccc12 : t1/2 beneath 40 min, strictly?
Found: Fulfilled

Lookup: Item COc1ccc(C(=O)/C=C/c2cc(CN3CCN(c4ccnc5cc(Cl)ccc45)CC3)c(O)c(OC)c2)c(OC)c1 : t1/2 beneath 40 min, strictly?
Found: Fulfilled

Lookup: Item CCN(CC)CCCC(C)Nc1ccnc2cc(Cl)ccc12 (configuration not stated) : t1/2 beneath 40 min, strictly?
Found: Not fulfilled

Lookup: Item COc1ccc(C(=O)/C=C/c2ccc(O)c(CN3CCN(c4ccnc5cc(Cl)ccc45)CC3)c2)c(OC)c1 : t1/2 beneath 40 min, strictly?
Found: Not fulfilled

----------
test-protocol: Partition coefficient, log D of the compound at pH 7.4 by HPLC analysis
Assay type: physicochemical
test-settings: octanol/water
parameter-measured: logD

Lookup: In one line, give reported logD of the entry COc1ccc(C(=O)/C=C/c2ccc(OCCN3CCN(c4ccnc5cc(Cl)ccc45)CC3)c(OC)c2)c(OC)c1 .
Found: 5.3

Lookup: In one line, give reported logD of the entry COc1ccc(C(=O)/C=C/c2ccc(OCc3cn(-c4ccnc5cc(Cl)ccc45)nn3)c(OC)c2)c(OC)c1 .
Found: 4.3

Lookup: In one line, give reported logD of the entry COc1cc(/C=C/C(C)=O)ccc1OCc1cn(-c2ccnc3cc(Cl)ccc23)nn1 .
Found: 3.6

Lookup: In one line, give reported logD of the entry COc1cc(/C=C/C(C)=O)cc(CN2CCN(c3ccnc4cc(Cl)ccc34)CC2)c1O .
Found: 3.9

Lookup: In one line, give reported logD of the entry COc1cc(/C=C/C(C)=O)ccc1OCCNc1ccnc2cc(Cl)ccc12 .
Found: 3

Lookup: In one line, give reported logD of the entry COc1cc(/C=C/C(C)=O)ccc1OCCN1CCN(c2ccnc3cc(Cl)ccc23)CC1 .
Found: 4.2

Lookup: In one line, give reported logD of the entry COc1ccc(C(=O)/C=C/c2cc(CN3CCN(c4ccnc5cc(Cl)ccc45)CC3)c(O)c(OC)c2)c(OC)c1 .
Found: 5

Lookup: In one line, give reported logD of the entry COc1ccc(C(=O)/C=C/c2ccc(O)c(CN3CCN(c4ccnc5cc(Cl)ccc45)CC3)c2)c(OC)c1 .
Found: 5.3

Lookup: In one line, give reported logD of the entry CC(=O)/C=C/c1ccc(O)c(CN2CCN(c3ccnc4cc(Cl)ccc34)CC2)c1 .
Found: 4.2

Lookup: In one line, give reported logD of the entry COc1ccc(C(=O)/C=C/c2ccc(OCCNc3ccnc4cc(Cl)ccc34)c(OC)c2)c(OC)c1 .
Found: 4.2
